Just for reference, the NIST ThermoML archive (doi:10.1016/j.fluid.2011.12.029) is where these values come from.

details: 298.15 K; 25000 kPa; Liquid; Vibrating tube method
As shown below, each of these compounds has a reported mass density value.
Unit kg/m3 implied. Number only.

Check out these entries, answers already filled in.
{"columns": ["compound", "mass density [kg/m3]"],
 "data": [
  ["CCCC[n+]1cccc(C)c1.N#C[N-]C#N [1-butyl-3-methylpyridinium dicyanamide]", 1058.87],
  ["CCCC[n+]1ccccc1.F[B-](F)(F)F [1-butylpyridinium tetrafluoroborate]", 1225.43]
]}

Hello, please tell me recorded mass density for this one: CCCCCCCC[n+]1cccc(C)c1.F[B-](F)(F)F [N-octyl-3-methylpyridinium tetrafluoroborate] 1108.07

Hello, please tell me recorded mass density for this one: `CCC[n+]1ccccc1Oc1ccc(Cl)c[n+]1CCOS(=O)(=O)[O-].F[B-](F)(F)F` 1263.98

====

conditions: 308.15 K; 30000 kPa; Liquid; Vibrating tube method
As shown below, each of these compounds has a reported mass density value.
Unit kg/m3 implied. Number only.

{"columns": ["compound", "mass density, kg/m3"],
 "data": [
  ["CCCCCCCC[n+]1cccc(C)c1.F[B-](F)(F)F [N-octyl-3-methylpyridinium tetrafluoroborate]", 1103.95],
  ["CCC[n+]1ccccc1Oc1ccc(Cl)c[n+]1CCOS(=O)(=O)[O-].F[B-](F)(F)F", 1258.87],
  ["CCCC[n+]1cccc(C)c1.N#C[N-]C#N [1-butyl-3-methylpyridinium dicyanamide]", 1054.8],
  ["CCCC[n+]1ccccc1.F[B-](F)(F)F [1-butylpyridinium tetrafluoroborate]", 1220.54]
]}

# next compound below
Hello, please tell me recorded mass density for this one: CCCC[n+]1ccccc1.O=S(=O)([O-])C(F)(F)F [1-butylpyridinium trifluoromethanesulfonate] 1324.38

====

As shown below, each of these compounds has a reported mass density value.
details: 323.15 K; 15000 kPa; Liquid; Vibrating tube method
± gives the expanded uncertainty stated by the source.
Note: state the figure and append the unit.

{"columns": ["compound", "measurement type", "result"],
 "data": [
  ["CCCC[n+]1ccccc1.O=S(=O)([O-])C(F)(F)F [1-butylpyridinium trifluoromethanesulfonate]", "mass density", "1304.98 ± 0.66 kg/m3"],
  ["CCCC[n+]1cccc(C)c1.N#C[N-]C#N [1-butyl-3-methylpyridinium dicyanamide]", "mass density", "1040.45 ± 0.94 kg/m3"],
  ["CCC[n+]1ccccc1Oc1ccc(Cl)c[n+]1CCOS(=O)(=O)[O-].F[B-](F)(F)F", "mass density", "1242.24 ± 0.57 kg/m3"]
]}

Hello, please tell me recorded mass density for this one: CCCCCCCC[n+]1cccc(C)c1.F[B-](F)(F)F [N-octyl-3-methylpyridinium tetrafluoroborate] 1087.27 ± 1.1 kg/m3

Hello, please tell me recorded mass density for this one: CCCC[n+]1ccccc1.F[B-](F)(F)F [1-butylpyridinium tetrafluoroborate] 1204.12 ± 0.52 kg/m3

====

conditions: 318.15 K; 40000 kPa; Liquid; Vibrating tube method
measurement type: mass density (kg/m3)
Unit kg/m3 implied. Number only.

{"columns": ["molecule", "units of measure", "quantitative readout"],
 "data": [
  ["CCCCCCCC[n+]1cccc(C)c1.F[B-](F)(F)F [N-octyl-3-methylpyridinium tetrafluoroborate]", "kg/m3", 1102.23],
  ["CCCC[n+]1ccccc1.O=S(=O)([O-])C(F)(F)F [1-butylpyridinium trifluoromethanesulfonate]", "kg/m3", 1322.07],
  ["CCCC[n+]1ccccc1.F[B-](F)(F)F [1-butylpyridinium tetrafluoroborate]", "kg/m3", 1218.05]
]}

Hello, please tell me recorded mass density for this one: `CCC[n+]1ccccc1Oc1ccc(Cl)c[n+]1CCOS(=O)(=O)[O-].F[B-](F)(F)F` 1255.96

Hello, please tell me recorded mass density for this one: CCCC[n+]1cccc(C)c1.N#C[N-]C#N [1-butyl-3-methylpyridinium dicyanamide] 1052.38
